ASSAY TARGET: UniProt Q95214
Sequence (Q95214 whole entry): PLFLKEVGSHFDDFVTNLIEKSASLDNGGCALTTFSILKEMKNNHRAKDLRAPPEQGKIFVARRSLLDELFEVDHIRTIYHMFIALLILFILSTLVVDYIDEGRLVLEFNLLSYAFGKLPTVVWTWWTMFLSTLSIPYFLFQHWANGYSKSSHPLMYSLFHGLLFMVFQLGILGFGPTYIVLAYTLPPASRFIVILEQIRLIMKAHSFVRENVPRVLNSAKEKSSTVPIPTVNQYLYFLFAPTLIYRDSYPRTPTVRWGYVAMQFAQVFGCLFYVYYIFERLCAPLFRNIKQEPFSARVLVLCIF
TEST METHOD NOTES: Compound was evaluated for inhibitory activity against Acyl coenzyme A:cholesterol acyltransferase in microsomes from rabbit liver.
EXPERIMENTAL READOUT: IC50 (nM)
Number in nM, nothing else.

// IC50 lookup, key: Cc1cc(C)n(CCCCC[S+]([O-])c2nc(-c3ccccc3)c(-c3ccccc3)[nH]2)n1 (stereo unspecified) 122
